Tested on: NK cells
Assay: NK cell stimulation (3H thymidine uptake assays and 51Cr release assays)
Type: cell-based, human
Details: Table II, peptides
Measured Parameter: NK cell stimulation

Substance: NLLGRFEL
Observed Measurement: no
--
Substance: NLLGRFELSGIPP [13-mer C-terminal extended peptide, Hsp70 aa 454-466]
Observed Measurement: no
--
Substance: T K D N N L L G R F E L S G (TKDNNLLGRFELSG) [14-mer peptide, Hsp70 aa 450-463]
Observed Measurement: yes
--
Substance: EGERAMTKDNNLLGRFELSG (EGERAMTKDNNLLGRFELSG) [Hsp70 (peptide) 441-463, 20 mer peptide of Hsp70]
Observed Measurement: yes

Each recorded value in this set is attributed to patent US7745399B2.
